Just for reference, patent US6610685B2 is where these values come from.

# assayed-system: 5-HT2C receptor (Homo sapiens, UniProt P28335)
# Sequence (P28335 33-458): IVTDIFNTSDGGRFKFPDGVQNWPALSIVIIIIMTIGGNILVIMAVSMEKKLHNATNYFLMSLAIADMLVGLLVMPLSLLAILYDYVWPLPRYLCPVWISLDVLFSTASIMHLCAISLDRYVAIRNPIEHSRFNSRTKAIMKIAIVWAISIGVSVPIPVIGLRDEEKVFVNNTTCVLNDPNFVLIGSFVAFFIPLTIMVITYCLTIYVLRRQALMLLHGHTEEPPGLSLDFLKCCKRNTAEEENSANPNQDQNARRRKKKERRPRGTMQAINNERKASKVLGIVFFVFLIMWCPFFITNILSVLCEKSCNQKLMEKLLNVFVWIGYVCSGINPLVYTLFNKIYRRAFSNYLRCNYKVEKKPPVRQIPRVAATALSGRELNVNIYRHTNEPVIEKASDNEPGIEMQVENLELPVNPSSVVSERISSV
# assay-remarks: Binding to the 5-HT2C receptor, Method (a), [3H]-5-HT
# Parameters: expressed in transfected cells; host or cells: CHO cell line
measured-parameter: Ki (nM)
Express it in nM; write the number only.

Lab book: Ki of COCCOc1ccc2c(c1)c(C[C@H](C)N)c1n2CCC1 [Example 2] noted as 19
